assayed_system: CK2A1 (CK2α/β) (Homo sapiens)
Sequence (P68400 whole entry, species assumed): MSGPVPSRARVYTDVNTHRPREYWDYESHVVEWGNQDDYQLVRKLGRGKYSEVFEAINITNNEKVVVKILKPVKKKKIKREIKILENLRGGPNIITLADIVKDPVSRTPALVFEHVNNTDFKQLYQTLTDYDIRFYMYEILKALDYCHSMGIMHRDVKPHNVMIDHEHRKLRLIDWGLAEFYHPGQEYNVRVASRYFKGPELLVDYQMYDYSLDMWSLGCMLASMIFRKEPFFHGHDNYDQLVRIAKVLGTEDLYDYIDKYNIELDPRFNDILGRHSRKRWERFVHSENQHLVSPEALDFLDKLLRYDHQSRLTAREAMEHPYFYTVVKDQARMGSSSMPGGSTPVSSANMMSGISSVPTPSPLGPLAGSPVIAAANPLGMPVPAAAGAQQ
Sequence (P67870 whole entry partner, species assumed): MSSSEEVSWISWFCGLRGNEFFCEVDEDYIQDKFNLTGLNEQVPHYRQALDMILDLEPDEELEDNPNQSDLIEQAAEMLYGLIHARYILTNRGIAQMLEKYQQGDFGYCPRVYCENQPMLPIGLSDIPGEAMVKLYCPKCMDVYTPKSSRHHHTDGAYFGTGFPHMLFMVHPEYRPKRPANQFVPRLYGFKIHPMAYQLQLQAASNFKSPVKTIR
test_name: CK2 kinase assay, CK2A1 (CK2α/β)
Format: biochemical
condition_notes: Table A; read-out: CK2A1 (CK2α/β) (IC50)
Label YES when IC50 < 0.8 nM; otherwise NO.

compound: N#Cc1cc(Nc2nc(NC3CC3)c3ncc(C#N)n3n2)c(Cl)cc1CCCCN1CCOCC1
label_value: YES
//
compound: CN1CC(NC2CCN(c3cc(C#N)cc(Nc4nc(NC5CC5)c5ncc(C#N)n5n4)c3Cl)CC2)CC1=O (racemic)
label_value: YES
//
compound: N#Cc1cc(Nc2nc(NC3CC3)c3ncc(C#N)n3n2)c(Cl)c(N2CCOC(CN3CC(F)C3)C2)c1 (centres unmarked)
label_value: NO
//
compound: CCNc1nc(Nc2cc(C#N)cc(N3CC[C@@H]4[C@@H](C3)OCCN4C)c2Cl)nn2c(C#N)cnc12 (racemic)
label_value: NO
